All values here come from ChEMBL document CHEMBL5724914.

# condition: human gut metagenome, 24 h, 2 µM; note: call rule not given here
quantity.measured: Bacterial Biotransformation

Field: example entries. Status: answers known.
INSERT INTO results (compound, quantity_measured, result) VALUES
  ('CC(NC(C)(C)C)C(=O)c1cccc(Cl)c1 (stereo unspecified) [BUPROPION]', 'Bacterial Biotransformation', 'Compound NOT metabolized'),
  ('CCOC(=O)[C@H](CCc1ccccc1)N[C@@H](C)C(=O)N1CCC[C@H]1C(=O)O.O=C(O)/C=C\C(=O)O [ENALAPRIL MALEATE]', 'Bacterial Biotransformation', 'Compound NOT metabolized'),
  ('CCS(=O)(=O)CCn1c([N+](=O)[O-])cnc1C [TINIDAZOLE]', 'Bacterial Biotransformation', 'Compound metabolized'),
  ('COc1ccc2c(c1)c(CC(=O)O)c(C)n2C(=O)c1ccc(Cl)cc1 [INDOMETHACIN]', 'Bacterial Biotransformation', 'Compound metabolized'),
  ('CC(=O)OCC(CCn1cnc2cnc(N)nc21)COC(C)=O [FAMCICLOVIR]', 'Bacterial Biotransformation', 'Compound metabolized'),
  ('CN(C)CCc1c[nH]c2ccc(CS(=O)(=O)N3CCCC3)cc12 [ALMOTRIPTAN]', 'Bacterial Biotransformation', 'Compound NOT metabolized');

Moving on to another compound below.
Field request: Bacterial Biotransformation | item: C[C@]12CCC(=O)C=C1[C@@H]1C[C@@H]1[C@H]1[C@@H]3[C@@H]4C[C@@H]4[C@@]4(CCC(=O)O4)[C@@]3(C)CC[C@@H]12 [DROSPIRENONE]
Compound metabolized
